Values from PubChem BioAssay

# Test details: small-molecule microarray binders of probe aLefty2, primary screen, biochemical, biotinylated probe, 635/667 nm fluorescence (AID 1094);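 also: score merges spot fluorescence near 667 nm with spot signal-to-noise ratio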
# Settings: higher = more signal
Measured endpoint: composite z-score
I only need the number, thanks.

Looking up C[C@H]1CC[C@H]2C(=O)N[C@H](Cc3ccccc3)C(=O)N2[C@@H]1c1ccccc1 , I found its composite z-score recorded as -0.17

Looking up O=C1[C@H]2[C@H]3[C@H](O)[C@H](O)CC(=NOC[C@@H](O)COCc4ccco4)[C@@H]3CC[C@H]2C(=O)N1Cc1ccc2c(c1)OCO2 , I found its composite z-score recorded as -0.172

Looking up CO[C@H]1COC(=O)[C@H](CCSC)NC(=O)CC=C[C@@H](C)[C@H](OC)COC(=O)[C@@H](OCc2ccccc2)C=C[C@@H]1C , I found its composite z-score recorded as -0.0131

Looking up CC(=O)OC[C@H]1O[C@H](CC=NO[C@@H](C)c2cn([C@H](CO)Cc3ccccc3)nn2)C=C[C@@H]1OC(C)=O , I found its composite z-score recorded as -0.0137

Looking up CCOC(=O)[C@H](CC(C)C)NC(=O)CCC1CC(OC(=O)NCc2ccc3c(c2)OCO3)CC2(CCCC(COC(=O)NCCOc3ccccc3)O2)O1 (stereo partly drawn) , I found its composite z-score recorded as -0.0928

Looking up O=C1C=C[C@@H](O)[C@@H]2[C@@H]3C(=O)N(Cc4ccccc4)C(=O)[C@@H]3CC[C@@H]12 , I found its composite z-score recorded as -0.147

Looking up CC1(C)O[C@H]2OC([C@H](O)CON3C(=O)c4ccccc4C3=O)[C@H](O)[C@H]2O1 (stereo partly drawn) , I found its composite z-score recorded as -0.0561

Looking up CC(C)=CCCC(C)=CCON=C1C[C@@H](O)[C@@H](O)[C@@H]2[C@@H]3C(=O)N(Cc4ccc5c(c4)OCO5)C(=O)[C@@H]3CC[C@H]12 , I found its composite z-score recorded as -0.166

Looking up CC(C)=CCCC(C)=CCON=C1C[C@@H](O)[C@@H](O)[C@@H]2[C@@H]3C(=O)N(C4CCCCC4)C(=O)[C@@H]3CC[C@H]12 , I found its composite z-score recorded as -0.0575

Looking up O=C1CCCC=C1C(O)c1ccc([N+](=O)[O-])cc1 (stereo not drawn) , I found its composite z-score recorded as -0.114

Looking up C#CCCCON=C1[C@H]2CCn3c(=O)n([C@@H](CC)c4ccccc4)c(=O)n3[C@H]2[C@H](O)[C@@H]2O[C@H]12 , I found its composite z-score recorded as -0.114

Looking up CC(CCN1CCCCc2nc(C)c(C)cc21)=NO[C@H](C)c1cn([C@@H]2COC[C@H]2O)nn1 , I found its composite z-score recorded as 0.0636

Looking up O=C1CCCC=C1C(O)COCc1ccccc1 (stereo not drawn) , I found its composite z-score recorded as -0.212

Looking up CC(CCN1CCCc2nc(C)c(C)cc21)=NO[C@H](C)c1cn([C@H](CO)Cc2ccccc2)nn1 , I found its composite z-score recorded as -0.0441

Looking up CC(=O)OC[C@H]1O[C@H](CC=NOCC[C@@H]2C=C[C@H](OC(C)=O)[C@@H](COC(C)=O)O2)C=C[C@@H]1OC(C)=O , I found its composite z-score recorded as 0.0024

Looking up O=C1[C@H]2[C@H]3[C@H](O)[C@H](O)CC(=NOCc4ccccc4)[C@@H]3CC[C@H]2C(=O)N1c1cccc(Oc2ccccc2)c1 , I found its composite z-score recorded as 0.266

Looking up O=C1[C@H]2CCn3c(=O)n(-c4ccccc4)c(=O)n3[C@H]2[C@H](O)[C@@H]2O[C@H]12 , I found its composite z-score recorded as -0.225

Looking up CON=C(C)CCN1CCCc2nc(C)c(C)cc21 , I found its composite z-score recorded as -0.0179

Looking up CC(C)=NOC(C)CN1CCCCc2nc(C)c(C)cc21 (stereo not drawn) , I found its composite z-score recorded as -0.0441

Looking up C#CCCCON=C1C[C@@H](O)[C@@H](O)[C@@H]2[C@@H]3C(=O)N(C[C@@H]4CCCO4)C(=O)[C@@H]3CC[C@H]12 , I found its composite z-score recorded as -0.134

Looking up COc1ccc(OC[C@@H](CO)OC)cc1 , I found its composite z-score recorded as -0.185

Looking up O=C1C2=CC[C@H]3C(=O)N(Cc4ccccc4)C(=O)[C@H]3[C@H]2[C@H](O)[C@@H]2O[C@H]12 , I found its composite z-score recorded as -0.185

Looking up CO[C@@H](C1CCCCC1)[C@@H](C)[C@H](OCc1cccc(Br)c1)[C@@H](C)CO , I found its composite z-score recorded as -0.181

Looking up CC(C)CON=C1[C@H]2CCn3c(=O)n(C)c(=O)n3[C@H]2[C@H](O)[C@@H]2O[C@H]12 , I found its composite z-score recorded as -0.112

Looking up CCOC(=O)[C@H](Cc1ccccc1)NC(=O)CCC1CC(OC(=O)NCc2cccc3ccccc23)CC2(CCCC(COC(=O)NCCc3ccc(Cl)cc3)O2)O1 (stereo partly drawn) , I found its composite z-score recorded as -0.253

Looking up CC(CCC(=O)OC[C@H]1O[C@H](C#Cc2ccccc2)C=C[C@@H]1Oc1ccc(C)cc1)=NO[C@H](C)c1cn([C@@H]2COC[C@H]2O)nn1 , I found its composite z-score recorded as -0.128

Looking up CC=CC1=C(CO)[C@H](O)[C@H]2O[C@H]2[C@@H]1O , I found its composite z-score recorded as -0.221

Looking up CCCNC(=O)OC[C@H]1O[C@H](CCON=C2c3cc(OC)ccc3O[C@H](c3cccc(OC)c3)[C@H]2O)C=C[C@@H]1Oc1ccc(OC)cc1 , I found its composite z-score recorded as 0.451

###

# Test details: small-molecule microarray binders of probe aNog, primary screen, biochemical, biotinylated probe, 635/667 nm fluorescence (AID 1115);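 also: probe is biotinylated aNog protein used at 0.15 µg/mL for 1 h at 4 C; z-score combines 667 nm fluorescence of each spot with its signal to noise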
# Settings: higher = more signal
Give composite z-score for every item shown.
I only need the number, thanks.

Looking up CO[C@H]1COC(=O)CCC[C@H](C)[C@H](OC)COC(=O)CC=C[C@@H]1C , I found its composite z-score recorded as -0.258

Looking up CCc1cc2c(nc1CC)CCN(CCC(C)=NO[C@@H]1O[C@H](COC(C)=O)[C@@H](OC(C)=O)[C@H](OC(C)=O)[C@H]1OC(C)=O)C2 , I found its composite z-score recorded as -0.152

Looking up C#CCCCON=C1[C@H]2CCn3c(=O)n(Cc4cc5c(cc4Cl)OCO5)c(=O)n3[C@H]2[C@H](O)[C@@H]2O[C@H]12 , I found its composite z-score recorded as -0.162

Looking up O=C1CCCC=C1C(O)c1ccc([N+](=O)[O-])cc1 (stereo not given) , I found its composite z-score recorded as -0.489

Looking up CC(=O)OC[C@H]1O[C@H](CC=NOCC[C@@H]2C=C[C@H](OC(C)=O)[C@@H](COC(C)=O)O2)C=C[C@@H]1OC(C)=O , I found its composite z-score recorded as -0.216

###

# Test details: RPMI8226 myeloma cell viability, profiling panel, resazurin fluorescence, basal, 24 h, PK04 Diversity Set (AID 1180);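 also: RPMI8826 multiple myeloma cell line at 5000 cells per well; test concentration not given here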
# Settings: higher = more signal
Returns met if the recorded z-score is greater than or equal to -0.05, and not met otherwise.

[Q] Hi team, for COc1ccc2c(c1)O[C@@H](c1cccc(C(F)(F)F)c1)[C@H](O)C2=O , is the recorded z-score at or above -0.05?
[A] met

[Q] Hi team, for CC(=O)OC[C@H]1O[C@H](CC=NOCC[C@@H]2C=C[C@H](OC(C)=O)[C@@H](COC(C)=O)O2)C=C[C@@H]1OC(C)=O , is the recorded z-score at or above -0.05?
[A] met

[Q] Hi team, for OC[C@H]1O[C@H](C#Cc2ccccc2)C=C[C@@H]1O , is the recorded z-score at or above -0.05?
[A] met

[Q] Hi team, for CO[C@H]1COC(=O)[C@H](C)COC(=O)[C@H](C)NC(=O)CC=C[C@H]1C , is the recorded z-score at or above -0.05?
[A] met

[Q] Hi team, for COc1ccc(OC[C@@H](CO)OC)cc1 , is the recorded z-score at or above -0.05?
[A] met

[Q] Hi team, for COc1ccc(COC(=O)NN=C2C[C@@H](O)[C@@H](O)[C@@H]3[C@@H]4C(=O)N(Cc5ccc6c(c5)OCO6)C(=O)[C@@H]4CC[C@H]23)cc1 , is the recorded z-score at or above -0.05?
[A] met

[Q] Hi team, for C[C@@H](c1ccccc1)N1C(=O)[C@H]2[C@H]3[C@H](O)[C@H](O)CC(=NNC(=O)OCc4ccccc4)[C@@H]3CC[C@H]2C1=O , is the recorded z-score at or above -0.05?
[A] not met

[Q] Hi team, for COc1ccc(OC[C@H]2CN3[C@@H](CC[C@@H](C)[C@@H]3c3ccc(Br)cc3)C(=O)O2)cc1 , is the recorded z-score at or above -0.05?
[A] not met

[Q] Hi team, for CC(C)CON=C1C[C@@H](O)[C@@H](O)[C@@H]2[C@@H]3C(=O)N([C@@H](C)c4ccccc4)C(=O)[C@@H]3CC[C@@H]12 , is the recorded z-score at or above -0.05?
[A] not met

[Q] Hi team, for C#CCCCON=C1[C@H]2CCn3c(=O)n([C@@H](CC)c4ccccc4)c(=O)n3[C@H]2[C@H](O)[C@@H]2O[C@H]12 , is the recorded z-score at or above -0.05?
[A] not met

[Q] Hi team, for CCN1C(=O)[C@H]2[C@H]3[C@H](O)[C@H](O)CC(=NOCC[C@@H]4C=C[C@H](OC(C)=O)[C@@H](COC(C)=O)O4)[C@@H]3CC[C@H]2C1=O , is the recorded z-score at or above -0.05?
[A] not met

[Q] Hi team, for CC(C)CN1CCc2nc(-c3ccccc3)c3c(c2C1)CO[C@@H](C)C3 , is the recorded z-score at or above -0.05?
[A] met

[Q] Hi team, for CCOC(=O)CCN1C(=O)[C@H]2[C@H]3[C@H](O)[C@H](O)CC(=NOCC(C)C)[C@@H]3CC[C@H]2C1=O , is the recorded z-score at or above -0.05?
[A] not met

[Q] Hi team, for C[C@H]1C=CCC(=O)OC[C@H](C)C(=O)N2CCC[C@H]2C(=O)OC1 , is the recorded z-score at or above -0.05?
[A] met

[Q] Hi team, for CC(=O)OC[C@H]1O[C@H](CC=NOC[C@@H](O)[C@H]2O[C@@H]3OC(C)(C)O[C@@H]3[C@H]2O)C=C[C@@H]1OC(C)=O , is the recorded z-score at or above -0.05?
[A] not met

[Q] Hi team, for CCOC(=O)[C@H](Cc1ccccc1)NC(=O)CCC1CC(OC(=O)NCc2cccc3ccccc23)CC2(CCCC(COC(=O)NCCOc3ccccc3)O2)O1 (stereo partly drawn) , is the recorded z-score at or above -0.05?
[A] met

[Q] Hi team, for O=C(NCCC[N+]1=CC=NC1c1ccccc1)N1CCCc2nc(-c3ccc(Br)cc3)ccc21 (stereo not drawn) , is the recorded z-score at or above -0.05?
[A] not met

[Q] Hi team, for O=C1C[C@@H](O)[C@@H](O)[C@@H]2[C@@H]3C(=O)N(Cc4ccccc4)C(=O)[C@@H]3CC[C@H]12 , is the recorded z-score at or above -0.05?
[A] not met

[Q] Hi team, for O=C1C[C@@H](O)[C@@H](O)[C@@H]2[C@@H]3C(=O)N(c4ccc(F)cc4F)C(=O)[C@@H]3CC[C@H]12 , is the recorded z-score at or above -0.05?
[A] not met

[Q] Hi team, for CC(=O)OC[C@H]1O[C@@H](ON=C(C)CCC(=O)OC[C@H]2O[C@H](C#Cc3ccccc3)C=C[C@@H]2Oc2ccc(C)cc2)[C@H](OC(C)=O)[C@@H](OC(C)=O)[C@@H]1OC(C)=O , is the recorded z-score at or above -0.05?
[A] met

[Q] Hi team, for COC(=O)[C@H](C)NC(=O)CCC1CC(OC(=O)NCc2cccc3ccccc23)CC2(CCCC(COC(=O)NCCOc3ccccc3)O2)O1 (stereo partly drawn) , is the recorded z-score at or above -0.05?
[A] met

[Q] Hi team, for COC(=O)[C@H](C)NC(=O)CCC1CC(OC(=O)NCc2ccc3c(c2)OCO3)CC2(CCCC(COC(=O)NCCc3ccc(Cl)cc3)O2)O1 (stereo partly drawn) , is the recorded z-score at or above -0.05?
[A] met
